- MEASURED_TARGET: APP-TAP-AICD (human, UniProt P05067 18-695)
- ASSAY_PROCEDURE: streptavidin purification of APP-TAP-AICD from brain homogenate; iTRAQ 116/114, transgenic mouse 75 vs control mouse 72; MALDI-TOF/TOF;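 also: relative protein abundance in the transgenic versus control pull-down, limited to proteins with high quality scores and above-average enrichment, without full normalization across the whole measurement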
Entries and their measured iTRAQ ratio follow.
QUANTITY_MEASURED: iTRAQ ratio

BINDER: Ubiquitin carboxyl-terminal hydrolase isozyme L1 (UCH-L1) (enzyme, mouse, UniProt Q9R0P9 1-220, looked up, also called UCHL1_MOUSE) MQLKPMEINPEMLNKVLAKLGVAGQWRFADVLGLEEETLGSVPSPACALLLLFPLTAQHENFRKKQIEELKGQEVSPKVYFMKQTIGNSCGTIGLIHAVANNQDKLEFEDGSVLKQFLSETEKLSPEDRAKCFEKNEAIQAAHDSVAQEGQCRVDDKVNFHFILFNNVDGHLYELDGRMPFPVNHGASSEDSLLQDAAKVCREFTEREQGEVRFSAVALC
QUANTITY_MEASURED: iTRAQ ratio
RECORDED_NUMBER: 4.68
--
BINDER: Phosphate carrier protein; mitochondrial precursor (PTP) (other, mouse, UniProt Q8VEM8 46-357, looked up) AVEEYSCEFGSMKYYALCGFGGVLSCGLTHTAVVPLDLVKCRMQVDPQKYKGIFNGFSITLKEDGVRGLAKGWAPTLIGYSMQGLCKFGFYEVFKALYSNILGEENTYLWRTSLYLASSASAEFFADIALAPMEAAKVRIQTQPGYANTLREAVPKMYKEEGLNAFYKGVAPLWMRQIPYTMMKFACFERTVEALYKFVVPKPRSECTKAEQLVVTFVAGYIAGVFCAIVSHPADSVVSVLNKEKGSTASQVLQRLGFRGVWKGLFARIIMIGTLTALQWFIYDSVKVYFRLPRPPPPEMPESLKKKLGLTE
QUANTITY_MEASURED: iTRAQ ratio
RECORDED_NUMBER: 4.61
--
BINDER: Fructose-bisphosphate aldolase C (Brain-type aldolase) (Aldolase 3) (enzyme, mouse, UniProt P05063 2-363, looked up) PHSYPALSAEQKKELSDIALRIVTPGKGILAADESVGSMAKRLSQIGVENTEENRRLYRQVLFSADDRVKKCIGGVIFFHETLYQKDDNGVPFVRTIQDKGILVGIKVDKGVVPLAGTDGETTTQGLDGLLERCAQYKKDGADFAKWRCVLKISDRTPSALAILENANVLARYASICQQNGIVPIVEPEILPDGDHDLKRCQYVTEKVLAAVYKALSDHHVYLEGTLLKPNMVTPGHACPIKYSPEEIAMATVTALRRTVPPAVPGVTFLSGGQSEEEASLNLNAINRCPLPRPWALTFSYGRALQASALNAWRGQRDNAGAATEEFIKRAEMNGLAAQGRYEGSGDGGAAAQSLYIANHAY
QUANTITY_MEASURED: iTRAQ ratio
RECORDED_NUMBER: 3.77
--
BINDER: Phosphatidylethanolamine-binding protein (PEBP) (other, mouse, UniProt P70296 2-187, looked up, also called PEBP1_MOUSE) AADISQWAGPLCLQEVDEPPQHALRVDYAGVTVDELGKVLTPTQVMNRPSSISWDGLDPGKLYTLVLTDPDAPSRKDPKFREWHHFLVVNMKGNDISSGTVLSDYVGSGPPSGTGLHRYVWLVYEQEQPLSCDEPILSNKSGDNRGKFKVETFRKKYNLGAPVAGTCYQAEWDDYVPKLYEQLSGK
QUANTITY_MEASURED: iTRAQ ratio
RECORDED_NUMBER: 4.87
--
BINDER: Clathrin light chain A (Lca) (other, mouse, UniProt O08585 1-235, looked up) MAELDPFGAPAGAPGGPALGNGVAGAGEEDPAAAFLAQQESEIAGIENDEAFAILDGGAPGRATRRAAGGPDAVDGVMNGEYYQESNGPTDSYAAISEVDRLQSEPESIRKWREEQTERLEALDANSRKQEAEWKEKAIKELEEWYARQDEQLQKTKANNRVADEAFYKQPFADLIGYVAAEEAFVNDIDESSPGTEWERVARLCDFNPKSSKQAKDVSRMRSVLISLKQAPLVH
QUANTITY_MEASURED: iTRAQ ratio
RECORDED_NUMBER: 3.98
--
BINDER: ATP synthase gamma chain; mitochondrial precursor (enzyme, mouse, UniProt Q91VR2 26-298, looked up) ATLKDITRRLKSIKNIQKITKSMKMVAAAKYARAERELKPARVYGTGSLALYEKADIKAPEDKKKHLIIGVSSDRGLCGAIHSSVAKQMKNEVAALTAAGKEVMIVGVGEKIKGILYRTHSDQFLVSFKDVGRKPPTFGDASVIALELLNSGYEFDEGSIIFNQFKSVISYKTEEKPIFSLNTIATAETMSIYDDIDADVLQNYQEYNLANLIYYSLKESTTSEQSARMTAMDNASKNASDMIDKLTLTFNRTRQAVITKELIEIISGAAALD
QUANTITY_MEASURED: iTRAQ ratio
RECORDED_NUMBER: 3.98
--
BINDER: 14-3-3 protein gamma (other, mouse, UniProt P61982 1-247, looked up, also called 14-3-3 γ) MVDREQLVQKARLAEQAERYDDMAAAMKNVTELNEPLSNEERNLLSVAYKNVVGARRSSWRVISSIEQKTSADGNEKKIEMVRAYREKIEKELEAVCQDVLSLLDNYLIKNCSETQYESKVFYLKMKGDYYRYLAEVATGEKRATVVESSEKAYSEAHEISKEHMQPTHPIRLGLALNYSVFYYEIQNAPEQACHLAKTAFDDAIAELDTLNEDSYKDSTLIMQLLRDNLTLWTSDQQDDDGGEGNN
QUANTITY_MEASURED: iTRAQ ratio
RECORDED_NUMBER: 4.28
--
BINDER: Malate dehydrogenase; mitochondrial precursor (enzyme, mouse, UniProt P08249 25-338, looked up) AKVAVLGASGGIGQPLSLLLKNSPLVSRLTLYDIAHTPGVAADLSHIETRANVKGYLGPEQLPDCLKGCDVVVIPAGVPRKPGMTRDDLFNTNATIVATLTAACAQHCPEAMVCIIANPVNSTIPITAEVFKKHGVYNPNKIFGVTTLDIVRANTFVAELKGLDPARVNVPVIGGHAGKTIIPLISQCTPKVDFPQDQLATLTGRIQEAGTEVVKAKAGAGSATLSMAYAGARFVFSLVDAMNGKEGVVECSFVQSKETECTYFSTPLLLGKKGLEKNLGIGKITPFEEKMIAEAIPELKASIKKGEDFVKNMK
QUANTITY_MEASURED: iTRAQ ratio
RECORDED_NUMBER: 4.71
--
BINDER: SH3-containing GRB2-like protein 1 (SH3 domain protein 2B) (SH3p8) (other, mouse, UniProt Q62419 1-368, looked up, also called SH3G1_MOUSE) MSVAGLKKQFYKASQLVSEKVGGAEGTKLDDDFKDMEKKVDVTSKAVAEVLVRTIEYLQPNPASRAKLTMLNTVSKIRGQVKNPGYPQSEGLLGECMVRHGKELGGESNFGDALLDAGESMKRLAEVKDSLDIEVKQNFIDPLQNLCDKDLKEIQHHLKKLEGRRLDFDYKKKRQGKIPDEELRQALEKFEESKEVAETSMHNLLETDIEQVSQLSALVDAQLDYHRQAVQILEELADKLKRRVREASSRPKREFKPRPREPFELGELEQPNGGFPCAPAPKITASSSFRSSDKPIRMPSKSMPPLDQPSCKALYDFEPENDGELGFREGDLITLTNQIDENWYEGMLHGQSGFFPLSYVQVLVPLPQ
QUANTITY_MEASURED: iTRAQ ratio
RECORDED_NUMBER: 3.64
